Target: T1, B-cat-Halo (beta-catenin HaloTag fusion expressed in HEK293 cells) (UniProt P35222 1-781)
T1 sequence (looked up): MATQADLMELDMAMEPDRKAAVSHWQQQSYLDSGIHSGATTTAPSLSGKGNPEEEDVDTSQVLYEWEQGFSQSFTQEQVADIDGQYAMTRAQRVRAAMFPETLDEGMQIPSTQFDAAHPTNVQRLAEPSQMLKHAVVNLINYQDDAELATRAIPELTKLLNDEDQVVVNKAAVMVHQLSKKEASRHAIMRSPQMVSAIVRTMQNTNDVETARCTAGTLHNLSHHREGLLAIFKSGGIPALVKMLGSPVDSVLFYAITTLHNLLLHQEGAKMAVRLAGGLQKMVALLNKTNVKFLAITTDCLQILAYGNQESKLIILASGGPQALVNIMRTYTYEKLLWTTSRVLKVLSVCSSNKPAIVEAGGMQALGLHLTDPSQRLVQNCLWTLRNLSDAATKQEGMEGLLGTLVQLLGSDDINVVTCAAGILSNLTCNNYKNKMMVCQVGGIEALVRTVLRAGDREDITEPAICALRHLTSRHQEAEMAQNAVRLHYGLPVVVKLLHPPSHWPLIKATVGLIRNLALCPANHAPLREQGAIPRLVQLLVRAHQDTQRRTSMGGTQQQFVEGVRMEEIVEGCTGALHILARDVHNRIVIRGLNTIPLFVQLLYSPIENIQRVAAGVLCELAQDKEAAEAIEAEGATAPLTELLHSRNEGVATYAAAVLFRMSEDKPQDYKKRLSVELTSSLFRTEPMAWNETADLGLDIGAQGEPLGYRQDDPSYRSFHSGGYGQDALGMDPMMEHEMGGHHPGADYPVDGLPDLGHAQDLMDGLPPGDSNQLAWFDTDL
Assay: cell-based or functional assay
Starred links: 1 amine or outer side, 2 acyl side, 3 side chain; linkers in the order of their positions; H or OH if unused. Positions of bridges follow the written chain, without caps; N, C: chain ends. Non-standard residues stand in square brackets, D forms with d. Primed or numbered codes have the meaning given here. PyrS2″ = (S)-3-amino-1-((pent-4-en-1-yloxy)carbonyl)pyrrolidine-3-carboxylic acid (stapling residue), C=CCCCOC(=O)N1CC[C@@](N[*:1])(C(=O)[*:2])C1; B5(3) = 2,2-bis(4-pentenyl)glycine (stitching residue), C=CCCCC(CCCC=C)(N[*:1])C(=O)[*:2]; Phe(2-CN) = N#Cc1ccccc1C[C@H](N)C(=O)O; Bta = N[C@@H](Cc1csc2ccccc12)C(=O)O; αAllylPro = C=CC[C@@]1(C(=O)O)CCCN1; tBuAla = CC(C)(C)C[C@H](N)C(=O)O; 3Thi = N[C@@H](Cc1ccsc1)C(=O)O
resultType: NanoBRET Abs IC50 (µM)
One number for each entry, in µM.

[
  {
    "binder": "Ac-[αAllylPro]D[tBuAla][B5(3)]DDAAFL[PyrS2″][Phe(2-CN)][Bta]Q-NH2 (staple 1-4, 4-11) [Ac-PL3-Asp-Npg-B5-Asp-Asp-Ala-Ala-Phe-Leu-PyrS2-2CNF-BztA-Gln-NH2]",
    "NanoBRET Abs IC50 [µM]": 10
  },
  {
    "binder": "Ac-[αAllylPro]D[tBuAla][B5(3)]NDAAFL[PyrS2″][3Thi][Bta]Q-NH2 (staple 1-4, 4-11) [Ac-PL3-Asp-Npg-B5-Asn-Asp-Ala-Ala-Phe-Leu-PyrS2-3Thi-BztA-Gln-NH2]",
    "NanoBRET Abs IC50 [µM]": 7.5
  },
  {
    "binder": "Ac-[αAllylPro]N[tBuAla][B5(3)]DDAAFL[PyrS2″][3Thi][Bta]Q-NH2 (staple 1-4, 4-11) [Ac-PL3-Asn-Npg-B5-Asp-Asp-Ala-Ala-Phe-Leu-PyrS2-3Thi-BztA-Gln-NH2]",
    "NanoBRET Abs IC50 [µM]": 23.4
  }
]

Each binder below has a reported value. Please supply its NanoBRET Abs IC50.
1. Ac-[αAllylPro]D[tBuAla][B5(3)]NDAAFN[PyrS2″][3Thi][Bta]Q-NH2 (staple 1-4, 4-11) [Ac-PL3-Asp-Npg-B5-Asn-Asp-Ala-Ala-Phe-Asn-PyrS2-3Thi-BztA-Gln-NH2]
2. Ac-[αAllylPro]N[tBuAla][B5(3)]DDAAFN[PyrS2″][3Thi][Bta]Q-NH2 (staple 1-4, 4-11) [Ac-PL3-Asn-Npg-B5-Asp-Asp-Ala-Ala-Phe-Asn-PyrS2-3Thi-BztA-Gln-NH2]

Reply text:
1. 27.8
2. 17.3
